- Method description: amyloid nucleation score (Sup35N fusion, yeast selection) (log enrichment); library NNK1; higher = more nucleation; inactive = no reads after selection;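 further: zero at mode of non-aggregating sequences after 7 days selection at 30°C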
Assign Yes to entries whose amyloid nucleation score meets or exceeds 0.2; assign No to the rest.

Q: Quick check, amyloid nucleation score >= 0.2? "ICCVVESLCYSVMFKHIS"
A: Yes

Q: Quick check, amyloid nucleation score >= 0.2? "FGLIKWWDGVWWLSDLRRLH"
A: Yes

Q: Quick check, amyloid nucleation score >= 0.2? "WTAFGRFAVQTFFEKHM"
A: No

Q: Quick check, amyloid nucleation score >= 0.2? "GGSFYKAILFNRKCVYVGSR"
A: Yes

Q: Quick check, amyloid nucleation score >= 0.2? "FSALPTLASGLGFGR"
A: Yes

Q: Quick check, amyloid nucleation score >= 0.2? "EDAWGIIEEIIGWRGCGRLA"
A: No

Q: Quick check, amyloid nucleation score >= 0.2? "DGRRFFYQRGDICLSMLHNH"
A: No

Q: Quick check, amyloid nucleation score >= 0.2? "RGSVFPCNVQVDWLRPETRA"
A: No

Q: Quick check, amyloid nucleation score >= 0.2? "RGRSIDVPRE"
A: No

Q: Quick check, amyloid nucleation score >= 0.2? "MFFVFSYSRS"
A: Yes

Q: Quick check, amyloid nucleation score >= 0.2? "IACCVRSVECGRGCQLRGLA"
A: Yes

Q: Quick check, amyloid nucleation score >= 0.2? "CGFALSRQVDILILLADSYD"
A: No

Q: Quick check, amyloid nucleation score >= 0.2? "EIQSSRRKITISMPNRSIVV"
A: Yes

Q: Quick check, amyloid nucleation score >= 0.2? "NKIGRAFVTSYGLRIHSGAG"
A: No

Q: Quick check, amyloid nucleation score >= 0.2? "YFSYSLQKTAARRGVVMFTQ"
A: No

Q: Quick check, amyloid nucleation score >= 0.2? "TAYAFNDCEFEPVWSRIVGN"
A: No

Q: Quick check, amyloid nucleation score >= 0.2? "NITFEVINQRCD"
A: Yes

Q: Quick check, amyloid nucleation score >= 0.2? "CFCPSKGDTDRLWAHFSARF"
A: No

Q: Quick check, amyloid nucleation score >= 0.2? "LMPARLNYERTALSMPKWSE"
A: No

Q: Quick check, amyloid nucleation score >= 0.2? "DPGPLARKVGRRIEAAIMVA"
A: Yes

Q: Quick check, amyloid nucleation score >= 0.2? "SVMNGVGPQWLVLTYLPVSR"
A: No

Q: Quick check, amyloid nucleation score >= 0.2? "SVYPLF"
A: No

Q: Quick check, amyloid nucleation score >= 0.2? "NGTIHMPLVWGYKLDRPRGW"
A: Yes

Q: Quick check, amyloid nucleation score >= 0.2? "MRISFAITCTVTN"
A: Yes

Q: Quick check, amyloid nucleation score >= 0.2? "YMRGGQDFYYVQDIVVFLLL"
A: Yes

Q: Quick check, amyloid nucleation score >= 0.2? "YLVMRMMVLRMAKPKIVGRD"
A: Yes

Q: Quick check, amyloid nucleation score >= 0.2? "AMPADIILVVGLSCDDRREG"
A: Yes

----------
Assign amyloid nucleation score to each entry below.
- Method description: amyloid nucleation score (Sup35N fusion, yeast selection) (log enrichment); library NNK2; higher = more nucleation; inactive = no reads after selection
Reply: number alone, nothing else.

Q: Would you mind telling me what amyloid nucleation score value was observed for "YNGRAIEHCQSMVSFRAVSR" ?
A: -0.041

Q: Would you mind telling me what amyloid nucleation score value was observed for "IPLVKCRSCRRCNN" ?
A: 0.412

Q: Would you mind telling me what amyloid nucleation score value was observed for "VCKMSSLNLCKRP" ?
A: -0.133

Q: Would you mind telling me what amyloid nucleation score value was observed for "AMRWFGKYSRFWNGYIRNWI" ?
A: -0.193

Q: Would you mind telling me what amyloid nucleation score value was observed for "MATDDIN" ?
A: -0.359

Q: Would you mind telling me what amyloid nucleation score value was observed for "HESHHSALFDCLGWQVLVWL" ?
A: 6.83

Q: Would you mind telling me what amyloid nucleation score value was observed for "RMLFVHPVGYGCEAAVGSSW" ?
A: 1.09

Q: Would you mind telling me what amyloid nucleation score value was observed for "DNRNCPAHWWASFTMKPGSE" ?
A: 0.14

----------
- Method description: amyloid nucleation score (Sup35N fusion, yeast selection) (log enrichment); library NNK1; higher = more nucleation; inactive = no reads after selection
Assign amyloid nucleation score to each entry below.
Reply: number alone, nothing else.

Q: Would you mind telling me what amyloid nucleation score value was observed for "AMYHLGQSSLLYSRPFNSTK" ?
A: -0.595

Q: Would you mind telling me what amyloid nucleation score value was observed for "MGCKAKRAFVEFLSRMEVRP" ?
A: -0.035

Q: Would you mind telling me what amyloid nucleation score value was observed for "IVYTYRVNIVII" ?
A: 7.53

Q: Would you mind telling me what amyloid nucleation score value was observed for "ICNFVSLFNWK" ?
A: -0.025

Q: Would you mind telling me what amyloid nucleation score value was observed for "LRMNLSRKPANFCFKCIIGK" ?
A: -0.348

Q: Would you mind telling me what amyloid nucleation score value was observed for "KVIFYEFPTSQRFMGSMYDM" ?
A: 1.88

Q: Would you mind telling me what amyloid nucleation score value was observed for "SERTMMSDKLSKRSLPCSLR" ?
A: -0.717

Q: Would you mind telling me what amyloid nucleation score value was observed for "CWCQAPVC" ?
A: 0.124

Q: Would you mind telling me what amyloid nucleation score value was observed for "MIYVGVDISV" ?
A: 2.24

Q: Would you mind telling me what amyloid nucleation score value was observed for "FLVCSFNYGAAPFFGGFMHY" ?
A: 0.679

Q: Would you mind telling me what amyloid nucleation score value was observed for "CDVLFGLLSLRYLPSSLRIG" ?
A: -0.434

Q: Would you mind telling me what amyloid nucleation score value was observed for "YSHFEQYMDNFNIMNYDYRD" ?
A: -0.879

Q: Would you mind telling me what amyloid nucleation score value was observed for "GYGWFLCTIHVQKLVCWPTL" ?
A: -0.114

Q: Would you mind telling me what amyloid nucleation score value was observed for "DLPWSMLKVL" ?
A: 0.689

Q: Would you mind telling me what amyloid nucleation score value was observed for "FVYLVHLLMNGRVIKLFRDM" ?
A: -0.372

Q: Would you mind telling me what amyloid nucleation score value was observed for "MFARLNF" ?
A: 3.98

Q: Would you mind telling me what amyloid nucleation score value was observed for "LRSKCECNTRGSCAWWCSDA" ?
A: 1.1

Q: Would you mind telling me what amyloid nucleation score value was observed for "PYLTICKIDYFYYLGRDSFF" ?
A: 4.47

Q: Would you mind telling me what amyloid nucleation score value was observed for "SDYIWWRLCGGIKCQGGELG" ?
A: -1.74

Q: Would you mind telling me what amyloid nucleation score value was observed for "EAVRWRGRNVRNLFWDN" ?
A: 0.03

Q: Would you mind telling me what amyloid nucleation score value was observed for "IRGTLT" ?
A: -1.42

Q: Would you mind telling me what amyloid nucleation score value was observed for "NMFNDVGDWTFNKGSFTGTV" ?
A: -0.482

Q: Would you mind telling me what amyloid nucleation score value was observed for "KEGLRDGLLCRYQTCAG" ?
A: 0.091

Q: Would you mind telling me what amyloid nucleation score value was observed for "YKNTCQLYPRVFTPWWYERM" ?
A: 0.173

Q: Would you mind telling me what amyloid nucleation score value was observed for "WLVLHTNLMLGCSTRSMLCA" ?
A: 0.174

Q: Would you mind telling me what amyloid nucleation score value was observed for "NFAPRYLAI" ?
A: 0.295

----------
- Method description: amyloid nucleation score (Sup35N fusion, yeast selection) (log enrichment); library NNK2; higher = more nucleation; inactive = no reads after selection
Assign amyloid nucleation score to each entry below.
Reply: number alone, nothing else.

Q: Would you mind telling me what amyloid nucleation score value was observed for "QVKFLRDFEGFCMMMKHSSR" ?
A: -0.395

Q: Would you mind telling me what amyloid nucleation score value was observed for "LGRLIWTRVSYCMSQINRVR" ?
A: 2.23

Q: Would you mind telling me what amyloid nucleation score value was observed for "CQRTTGALTSGWKPDDIGSV" ?
A: 0.192

Q: Would you mind telling me what amyloid nucleation score value was observed for "ANLCSAT" ?
A: -0.799

----------
- Method description: amyloid nucleation score (Sup35N fusion, yeast selection) (log enrichment); library NNK1; higher = more nucleation; inactive = no reads after selection
Result type: amyloid nucleation score
Reply: number alone, nothing else.

Q: Would you mind telling me what amyloid nucleation score value was observed for "DRVANNLMD" ?
A: -0.344

Q: Would you mind telling me what amyloid nucleation score value was observed for "TGSQLWHIIFRC" ?
A: 0.214

Q: Would you mind telling me what amyloid nucleation score value was observed for "VIRFSGVLCMIDL" ?
A: 5.09

Q: Would you mind telling me what amyloid nucleation score value was observed for "SSSKYMIFFYRAIHHHKGME" ?
A: 0.31

Q: Would you mind telling me what amyloid nucleation score value was observed for "GSSRDNGQFYSFELS" ?
A: 0.398

Q: Would you mind telling me what amyloid nucleation score value was observed for "YQSFLASACSSEPIRFSKQH" ?
A: 0.915

Q: Would you mind telling me what amyloid nucleation score value was observed for "DYGIWELSINMSVKYLCWLP" ?
A: 1.27

Q: Would you mind telling me what amyloid nucleation score value was observed for "GCLAPLLIDLCCFQMRNSSN" ?
A: 0.05

Q: Would you mind telling me what amyloid nucleation score value was observed for "SAMAWIPFTISPRFEFRTCN" ?
A: 5.16

Q: Would you mind telling me what amyloid nucleation score value was observed for "RFVQRKDSFFARI" ?
A: 1.21

Q: Would you mind telling me what amyloid nucleation score value was observed for "SQVEVIVYNVVSFTDGVRLA" ?
A: 3.89

Q: Would you mind telling me what amyloid nucleation score value was observed for "YVFLRFVSVCSYN" ?
A: 4.9

Q: Would you mind telling me what amyloid nucleation score value was observed for "RGSCMIVGKACS" ?
A: -0.37

Q: Would you mind telling me what amyloid nucleation score value was observed for "IPTFSKIGKLFYVCGAEFSD" ?
A: -0.355

Q: Would you mind telling me what amyloid nucleation score value was observed for "GVAWMFLCYVLAA" ?
A: 0.575
